System: Neuro-2a
Test: neurite formation score, plate-normalized to DMSO control mean 5.04 (score (0-8 scale)); higher = more or longer neurites
Conditions: 1 µM
quantity_name: neurite formation score

# molecule, quantity_name, observed
records = [
    ("CCCCCCCCCCCCCC(=O)OC[C@H](CO)OC(=O)CCCCCCCCCCCCC [1,2-Dimyristoyl-sn-glycerol]", "neurite formation score", 4.88),
    ("c1cc(-c2cnn3cc(-c4ccc(N5CCNCC5)cc4)cnc23)c2cccnc2c1", "neurite formation score", 4.88),
    ("C=CC(=O)Nc1cc(Nc2nccc(-c3cn(C)c4ccccc34)n2)c(OC)cc1N(C)CCN(C)C", "neurite formation score", 5.14),
    ("Cc1cc(C)c(/C=C2\\C(=O)Nc3ccccc32)[nH]1", "neurite formation score", 5.02),
    ("CC(C)N(CCC(=O)c1ccc2ccccc2c1)Cc1ccccc1", "neurite formation score", 5.02),
    ("CN1CCN(c2ccc3nc(-c4c(N)c5c(F)cccc5[nH]c4=O)[nH]c3c2)CC1 [Dovitinib Dilactic acid]", "neurite formation score", 4.96),
    ("CN1CCN(CCOc2cc(OC3CCOCC3)c3c(Nc4c(Cl)ccc5c4OCO5)ncnc3c2)CC1 [Saracatinib (AZD0530)]", "neurite formation score", 4.91),
    ("CCn1c(=O)c(-c2ccc(-c3cncs3)cc2Cl)cc2cnc(Nc3ccc(N4CCN(C)CC4)cc3)nc21", "neurite formation score", 4.96),
    ("CNc1nc(Nc2cnn(C3CCN(C4COC4)CC3F)c2Cl)ncc1C(F)(F)F (centres undefined)", "neurite formation score", 4.88),
]
